src = patent US11814435B2

- experimental_target: cyBCMA
- experiment_notes: Kinetics and affinity of cyBCMA/human IgG interactions by SPR (Bio-Rad Proteon XPR36)
- Assay type: binding, cynomolgus
- condition_context: 37° C.
observation_type: kd (1/s) cyBCMA @37° C. (s⁻¹)
Enter your answer as a number in s⁻¹; do not include the unit.

These recorded examples may help you get a feel for the data.
molecule: L3.PY/H2.QL: anti-BCMA antibody (antibody, V domains shown) VH: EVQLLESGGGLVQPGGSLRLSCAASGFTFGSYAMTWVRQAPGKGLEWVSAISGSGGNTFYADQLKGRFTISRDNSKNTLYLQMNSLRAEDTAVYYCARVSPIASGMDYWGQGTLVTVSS VL: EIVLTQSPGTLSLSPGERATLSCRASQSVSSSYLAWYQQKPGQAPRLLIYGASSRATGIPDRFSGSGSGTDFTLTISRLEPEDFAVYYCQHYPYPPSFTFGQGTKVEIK
kd (1/s) cyBCMA @37° C. (s⁻¹): 0.0126
//
molecule: L3.PY/L1.FF/H2.LT: anti-BCMA antibody (antibody, V domains shown) VH: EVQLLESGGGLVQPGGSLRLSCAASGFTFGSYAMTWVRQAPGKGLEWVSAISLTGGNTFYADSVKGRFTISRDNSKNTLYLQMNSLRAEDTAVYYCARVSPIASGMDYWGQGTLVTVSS VL: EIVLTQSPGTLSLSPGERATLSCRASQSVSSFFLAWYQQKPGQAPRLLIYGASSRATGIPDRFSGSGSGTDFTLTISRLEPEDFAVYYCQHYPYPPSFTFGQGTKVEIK
kd (1/s) cyBCMA @37° C. (s⁻¹): 0.00341
//
molecule: L3.PY/L3.KY/H2.LT: anti-BCMA antibody (antibody, V domains shown) VH: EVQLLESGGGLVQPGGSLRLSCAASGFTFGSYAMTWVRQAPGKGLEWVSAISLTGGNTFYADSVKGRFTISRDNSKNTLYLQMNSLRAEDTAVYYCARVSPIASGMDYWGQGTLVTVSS VL: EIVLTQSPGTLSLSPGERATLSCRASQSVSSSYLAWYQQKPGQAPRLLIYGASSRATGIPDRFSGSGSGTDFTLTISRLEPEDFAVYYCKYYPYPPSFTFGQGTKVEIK
kd (1/s) cyBCMA @37° C. (s⁻¹): 0.00232
//
molecule: L3.PY/L3.KY/H2.YQ: anti-BCMA antibody (antibody, V domains shown) VH: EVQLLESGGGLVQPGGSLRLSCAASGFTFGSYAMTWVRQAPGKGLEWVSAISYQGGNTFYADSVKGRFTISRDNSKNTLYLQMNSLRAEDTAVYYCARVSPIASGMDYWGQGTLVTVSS VL: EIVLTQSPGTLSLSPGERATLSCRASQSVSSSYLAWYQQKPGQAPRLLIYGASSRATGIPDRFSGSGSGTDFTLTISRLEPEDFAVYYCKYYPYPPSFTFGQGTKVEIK
kd (1/s) cyBCMA @37° C. (s⁻¹): 0.00258

Exercise: Identify the reported kd (1/s) cyBCMA @37° C. for the following entry. L3.PY/L1.AH/H2.YQ: anti-BCMA antibody (antibody, V domains shown) VH: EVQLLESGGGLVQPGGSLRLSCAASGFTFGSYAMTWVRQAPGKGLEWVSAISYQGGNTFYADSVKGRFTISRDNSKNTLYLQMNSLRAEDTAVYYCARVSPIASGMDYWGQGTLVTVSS VL: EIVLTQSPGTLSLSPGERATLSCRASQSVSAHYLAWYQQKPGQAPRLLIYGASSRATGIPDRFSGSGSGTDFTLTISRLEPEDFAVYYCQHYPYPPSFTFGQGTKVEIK
Key: 0.00431
